Data provenance: ChEMBL document CHEMBL1821642

system: LoVo; test: Antiproliferative activity against human LoVo after 48 hrs by spectrophotometry; assay type: functional, cell-based
property: pIC50
Schema: pIC50 number; meaning minus log10 of the concentration expressed in molar units.

pIC50 lookup needed for `COc1cc(C(=O)c2c(C)oc3c(O)c(OC)ccc23)cc(OC)c1OC` , thanks.
9.62

* * *

system: HUVEC; assay: Selectivity ratio of IC50 for HUVEC grown in absence of growth factors to IC50 for HUVEC grown in presence of growth factors; type: functional, Homo sapiens
Overview of reported Ratio IC50 across a group of molecules:
// print number alone

Examples from the recorded data:
Item `COc1cc(C(=O)c2c(N)oc3c(O)c(OC)ccc23)cc(OC)c1OC` has what recorded Ratio IC50?
4.6

So what's the measured Ratio IC50 for this one? `COc1cc(C(=O)c2c(-c3cccs3)oc3c(O)c(OC)ccc23)cc(OC)c1OC`
1.2

Quick one: Ratio IC50 for `COc1ccc2c(C(=O)c3cc(OC)c(OC)c(OC)c3)c(-c3ccc(OC)nc3)oc2c1` ?
0.6

Ratio IC50 for `COc1ccc2c(C(=O)c3cc(OC)c(OC)c(OC)c3)coc2c1` ?
1.4

More entries:
Recorded Ratio IC50 for `COc1ccc2c(C(=O)c3cc(OC)c(OC)c(OC)c3)c(-c3ccc(OC)c(N)c3)oc2c1` , please?
1.4

Which measured Ratio IC50 value corresponds to `COc1cc(C(=O)c2c(-c3cnn(C)c3)oc3c(O)c(OC)ccc23)cc(OC)c1OC` ?
1.8

Data request, read-out Ratio IC50, for `COc1ccc2c(C(=O)c3cc(OC)c(OC)c(OC)c3)c(-c3ccc(O)cc3)oc2c1`
1.1

Look up Ratio IC50 for this molecule: `COc1ccc2c(C(=O)c3cc(OC)c(OC)c(OC)c3)c(-c3ccc4c(ccn4C)c3)oc2c1`
0.8

Ratio IC50 lookup needed for `COc1ccc2c(C(=O)c3cc(OC)c(OC)c(OC)c3)c(N3CCN(C)CC3)oc2c1` , thanks.
0.8

* * *

Entries and their pIC50 values follow.
system: DU-145; assay: Antiproliferative activity against human DU145 after 48 hrs by spectrophotometry; type: functional, cell-based; settings: DU-145, 48 h
Expect pIC50 as a plain number equal to -log10 of the molar concentration.

Record request: pIC50 value, item `COc1ccc(/C=C\c2cc(OC)c(OC)c(OC)c2)cc1O`
8.40

Consider the additional compound presented here.
Any idea what pIC50 was measured for `COc1cc(C(=O)c2c(C)oc3c(O)c(OC)ccc23)cc(OC)c1OC` ?
9.44

* * *

test system: A2780; test: Cytotoxicity against human A2780 cells; assay type: functional, cell-based
property: pIC50
// pIC50 is dimensionless: -log10 of concentration (M)

Entry `COc1cc(C(=O)c2c(C)oc3c(O)c(OC)ccc23)cc(OC)c1OC` has what pIC50?
10.52

* * *

test system: HUVEC; assay: Selectivity ratio of IC50 for HUVEC grown in absence of growth factors to IC50 for HUVEC grown in presence of growth factors; format: functional, Homo sapiens
property: Ratio IC50
Output: the number by itself.

Report Ratio IC50 for `COc1cc(C(=O)c2c(NCCN(C)C)oc3c(O)c(OC)ccc23)cc(OC)c1OC` please.
1.2

Continuing:
Give its Ratio IC50 value. Item: `COc1ccc(-c2oc3c(O)c(OC)ccc3c2C(=O)c2cc(OC)c(OC)c(OC)c2)cc1O`
2

Which Ratio IC50 reading was recorded for the compound `COc1cc(C(=O)c2c(/C=C/C(N)=O)oc3c(O)c(OC)ccc23)cc(OC)c1OC` ?
0.9

Which measured Ratio IC50 value corresponds to `COc1cc(C(=O)c2c(NCCO)oc3c(O)c(OC)ccc23)cc(OC)c1OC` ?
0.9

Endpoint output: Ratio IC50 of `COc1ccc2c(C(=O)c3cc(OC)c(OC)c(OC)c3)c(Br)oc2c1` . Value?
0.6

Quick one: Ratio IC50 for `COC(=O)/C=C/c1oc2c(O)c(OC)ccc2c1C(=O)c1cc(OC)c(OC)c(OC)c1` ?
6

What does the record list as Ratio IC50 for `COc1cc(C(=O)c2c(-c3cnn(C)c3)oc3c(OC(C)C)c(OC)ccc23)cc(OC)c1OC` ?
0.6

GET /values?readout=Ratio IC50&item= `COc1cc(C(=O)c2c(-c3ccco3)oc3c(O)c(OC)ccc23)cc(OC)c1OC`
0.9

State the recorded Ratio IC50 for this entry: `COc1cc(C(=O)c2c(C#N)oc3c(O)c(OC)ccc23)cc(OC)c1OC`
2.7

* * *

tested on: HUVEC; assay: Antiproliferative activity against HUVEC grown in presence of growth factors after 48 hrs by spectrophotometry; assay type: functional, cell-based; conditions: Homo sapiens
property: pIC50
Quick note: pIC50 values are minus log10 of concentrations in mol/L.

Fill in the blank: the reported pIC50 of `COc1ccc(/C=C\c2cc(OC)c(OC)c(OC)c2)cc1O` is ____.
8.44
